Values compiled from ChEMBL document CHEMBL5390316.

# System: Hs-578T
# Protocol description: Antiproliferative activity against human Hs-578T cells assessed as reduction in cell viability incubated for 48 hrs by MTT assay
# Type: functional, cell-based
Assay metric: pIC50
Remember the convention: pIC50 equals -log10 of concentration in molar.

Fill blank: measured pIC50 of the molecule `CC[C@H](C)[C@H]1C(=O)O[C@H](C(C)C)C(=O)N(C)[C@@H]([C@@H](C)CC)C(=O)O[C@H](C(C)C)C(=O)N(C)[C@@H]([C@@H](C)CC)C(=O)O[C@H](C(C)C)C(=O)N1C` is ____.
5.13

Cool, now `CC[C@H](C)[C@H]1C(=O)O[C@H](C(C)C)C(=O)N(C)[C@@H]([C@@H](C)CC)C(=O)O[C@H](C(C)C)C(=O)N(C)[C@@H]([C@@H](C)CC)C(=O)O[C@H](Cc2ccccc2)C(=O)N1C`
5.36

Cool, now `CC[C@H](C)[C@H]1C(=O)O[C@H](C(C)C)C(=O)N(C)[C@@H](Cc2ccccc2)C(=O)O[C@H](C(C)C)C(=O)N(C)[C@@H]([C@@H](C)CC)C(=O)O[C@H](C(C)C)C(=O)N1C`
5.10

Now consider `CC[C@H](C)[C@H]1C(=O)O[C@H](C(C)C)C(=O)N(C)[C@@H]([C@@H](C)CC)C(=O)O[C@H](C(C)C)C(=O)N(C)[C@@H]([C@@H](C)CC)C(=O)O[C@H](C)C(=O)N1C` and answer again.
4.89

Check `CC[C@H](C)[C@H]1C(=O)O[C@H](C(C)C)C(=O)N(C)[C@@H]([C@@H](C)CC)C(=O)O[C@H](C(C)C)C(=O)N(C)[C@@H]([C@@H](C)CC)C(=O)O[C@H](Cc2ccc3ccccc3c2)C(=O)N1C` too.
5.10

Try this molecule too: `CC[C@H](C)[C@H]1C(=O)O[C@H](C(C)C)C(=O)N(C)[C@@H]([C@@H](C)CC)C(=O)O[C@H](C(C)C)C(=O)N(C)CC(=O)O[C@H](C(C)C)C(=O)N1C`
4.78

Please answer likewise for `CC[C@H](C)[C@H]1C(=O)O[C@H](C(C)C)C(=O)N(C)[C@@H]([C@@H](C)CC)C(=O)O[C@H](C(C)C)C(=O)N(C)[C@@H]([C@@H](C)CC)C(=O)O[C@H](CCc2ccccc2)C(=O)N1C`
5.09
